From: the Immune Epitope Database (IEDB)

test_system: HLA-A*02:12
protocol_text: IEDB peptide-MHC binding, purified MHC/competitive/fluorescence; filed as Kd, often an IC50 or EC50 that approximates it; bounds were set here for any values at or beyond the usual limits of such assays
recorded_conditions: source organism: Yersinia pestis Nepal516
endpoint_label: pKd
Units for pKd: none; it is -log10 of a concentration expressed in mol/L.

Field pKd (entry SMLCWLGMT ) reads 6.24

---

test_system: HLA-C*07:02
protocol_text: IEDB peptide-MHC binding, purified MHC/direct/fluorescence; filed as Kd, often an IC50 or EC50 that approximates it; bounds were set here for any values at or beyond the usual limits of such assays
recorded_conditions: source organism: Influenza A virus (A/duck/Bavaria/1/1977(H1N1))
endpoint_label: Kd

Field Kd (entry LPFQNIHPI ) reads ≥ 20 µM

---

test_system: HLA-A*02:01
protocol_text: IEDB peptide-MHC binding, purified MHC/direct/fluorescence; filed as Kd, often an IC50 or EC50 that approximates it; bounds were set here for any values at or beyond the usual limits of such assays
recorded_conditions: source organism: Marburg virus - Musoke, Kenya, 1980
pKd: −log10 of the molar value.
endpoint_label: pKd

Field pKd (entry CVFKFIVAK ) reads ≤ 4.70

Others:
Field pKd (entry LFLSFCSLF ) reads ≤ 4.70

---

test_system: HLA-B*51:01
protocol_text: IEDB peptide-MHC binding, purified MHC/competitive/fluorescence; filed as Kd, often an IC50 or EC50 that approximates it; bounds were set here for any values at or beyond the usual limits of such assays
recorded_conditions: source organism: Bacillus thuringiensis serovar israelensis ATCC 35646
endpoint_label: Kd

Field Kd (entry ITMYVAFEQ ) reads ≥ 20 µM

---

test_system: HLA-A*02:01
protocol_text: IEDB peptide-MHC binding, purified MHC/competitive/fluorescence; filed as Kd, often an IC50 or EC50 that approximates it; bounds were set here for any values at or beyond the usual limits of such assays
recorded_conditions: source organism: Four Corners hantavirus
pKd: −log10 of the molar value.
endpoint_label: pKd

Field pKd (entry PELGAFFAI ) reads ≤ 4.70

---

test_system: HLA-B*53:01
protocol_text: IEDB peptide-MHC binding, purified MHC/competitive/radioactivity; filed as Kd, often an IC50 or EC50 that approximates it; bounds were set here for any values at or beyond the usual limits of such assays
recorded_conditions: source organism: Vaccinia virus WR
pKd: −log10 of the molar value.
pKd values, listed per item

For orientation, consider the following solved cases.
Field pKd (entry VTNLISETLK ) reads ≤ 4.16

Field pKd (entry RPDTRHLRVL ) reads ≤ 4.16

Field pKd (entry LLFASMGFK ) reads ≤ 4.11

Field pKd (entry RPSIGNVFKA ) reads ≤ 4.44

Field pKd (entry ATLMKTSCSK ) reads ≤ 4.16

Moving on to another sequence below.
Field pKd (entry VPVLEKKVCA ) reads ≤ 4.58

---

test_system: HLA-A*33:01
protocol_text: IEDB peptide-MHC binding, purified MHC/competitive/radioactivity; filed as Kd, often an IC50 or EC50 that approximates it; bounds were set here for any values at or beyond the usual limits of such assays
recorded_conditions: source organism: Vaccinia virus WR
Mark fulfilled only when Kd stays strictly below 2 µM. Values equal to the cut-off are not fulfilled.

Would you please look over these solved cases?
# input Field: below-cutoff. Rule: recorded Kd strictly less than 2 µM. Subject: VAGTGVQFY
# output not fulfilled

# input Field: below-cutoff. Rule: recorded Kd strictly less than 2 µM. Subject: SFLRKIGDK
# output not fulfilled

# input Field: below-cutoff. Rule: recorded Kd strictly less than 2 µM. Subject: FIFSALDEK
# output not fulfilled

# input Field: below-cutoff. Rule: recorded Kd strictly less than 2 µM. Subject: SINKVYGRY
# output not fulfilled

# input Field: below-cutoff. Rule: recorded Kd strictly less than 2 µM. Subject: PIIVAGFSGK
# output not fulfilled

Others:
# input Field: below-cutoff. Rule: recorded Kd strictly less than 2 µM. Subject: DMMLMIGNY
# output not fulfilled

# input Field: below-cutoff. Rule: recorded Kd strictly less than 2 µM. Subject: YSISNDLLY
# output not fulfilled

# input Field: below-cutoff. Rule: recorded Kd strictly less than 2 µM. Subject: LIWAYLSKK
# output not fulfilled

# input Field: below-cutoff. Rule: recorded Kd strictly less than 2 µM. Subject: ATFIDVHIPK
# output fulfilled

# input Field: below-cutoff. Rule: recorded Kd strictly less than 2 µM. Subject: RVMANNVKKK
# output not fulfilled

# input Field: below-cutoff. Rule: recorded Kd strictly less than 2 µM. Subject: ETVKMGAFMY
# output not fulfilled

---

test_system: HLA-A*11:01
protocol_text: IEDB peptide-MHC binding, purified MHC/competitive/radioactivity; filed as Kd, often an IC50 or EC50 that approximates it; bounds were set here for any values at or beyond the usual limits of such assays
recorded_conditions: source organism: SARS coronavirus Tor2
pKd values, listed per item
Units for pKd: none; it is -log10 of a concentration expressed in mol/L.

Let me check: SFNHVLKRK , system HLA-A*11:01, measured pKd is 5.75

Let me check: YLCGFIKQK , system HLA-A*11:01, measured pKd is 5.78

Let me check: VQSKMSDVK , system HLA-A*11:01, measured pKd is 6.70

Let me check: VSTCFKLMLK , system HLA-A*11:01, measured pKd is 7.82

Let me check: TLAILTALR , system HLA-A*11:01, measured pKd is 5.35

Let me check: IINNAVYTK , system HLA-A*11:01, measured pKd is 7.77

Let me check: RFNVAITRAK , system HLA-A*11:01, measured pKd is 6.75

Let me check: KSAGFPFNK , system HLA-A*11:01, measured pKd is 8.41

Others:
Let me check: VTYTEIEPK , system HLA-A*11:01, measured pKd is 8.13

Let me check: RLLACLCKHK , system HLA-A*11:01, measured pKd is 8.15

Let me check: VQIGEYTFEK , system HLA-A*11:01, measured pKd is 7.66

---

test_system: HLA-A*03:01
protocol_text: IEDB peptide-MHC binding, purified MHC/competitive/radioactivity; filed as Kd, often an IC50 or EC50 that approximates it; bounds were set here for any values at or beyond the usual limits of such assays
recorded_conditions: source organism: Vaccinia virus WR
endpoint_label: pKd
Units for pKd: none; it is -log10 of a concentration expressed in mol/L.

For orientation, consider the following solved cases.
Field pKd (entry RVMANNVKKK ) reads 6.99

Field pKd (entry IMSMMNITR ) reads 6.06

Field pKd (entry IFSPENKAFK ) reads 7.02

Field pKd (entry SINKVYGRY ) reads 6.28

Field pKd (entry GARVIWMDAY ) reads 5.99

Field pKd (entry HTTAFFNTCK ) reads 6.74

Others:
Field pKd (entry ELCGAFLFY ) reads 6.81

Field pKd (entry KIMEIVSHLR ) reads 7.14

---

test_system: HLA-A*24:02
protocol_text: IEDB peptide-MHC binding, purified MHC/competitive/fluorescence; bounds were set here for any values at or beyond the usual limits of such assays
recorded_conditions: source organism: Zaire ebolavirus
pIC50: −log10 of the molar value.
endpoint_label: pIC50

For orientation, consider the following solved cases.
Field pIC50 (entry VVNYEAGEW ) reads ≤ 4.12

Field pIC50 (entry HQKKNEISF ) reads ≤ 3.94

Moving on to another sequence below.
Field pIC50 (entry RDGVKRLEE ) reads ≤ 4.05

---

test_system: HLA-A*11:01
protocol_text: IEDB peptide-MHC binding, purified MHC/competitive/radioactivity; filed as Kd, often an IC50 or EC50 that approximates it; bounds were set here for any values at or beyond the usual limits of such assays
recorded_conditions: source organism: Vaccinia virus WR
endpoint_label: Kd (nM)
Supply the numeric figure in nM, leaving out any unit text.

For orientation, consider the following solved cases.
Field Kd (entry LIWAYLSKK ) reads 101

Field Kd (entry ATFIDVHIPK ) reads 0.269

Field Kd (entry KIMEIVSHLR ) reads 3.61

Field Kd (entry LLFASMGFK ) reads 1.71

Field Kd (entry LTAVCMKCFK ) reads 7.88

Field Kd (entry FIFSALDEK ) reads 65.1

Field Kd (entry DTDIFSPENK ) reads 1680

Field Kd (entry KIDKLTFQIY ) reads 17500

Field Kd (entry MVASDVCKK ) reads 153

Field Kd (entry SINKVYGRY ) reads 195

Moving on to another sequence below.
Field Kd (entry MVSVSDFRDY ) reads 17700

---

Kd values, listed per item
test_system: HLA-A*23:01
protocol_text: IEDB peptide-MHC binding, purified MHC/competitive/radioactivity; filed as Kd, often an IC50 or EC50 that approximates it; bounds were set here for any values at or beyond the usual limits of such assays
recorded_conditions: source organism: SARS coronavirus Tor2

Field Kd (entry TSTGNYNYKY ) reads ≥ 70 µM

Field Kd (entry YYPSARIVY ) reads ≥ 84.5 µM

Field Kd (entry LTGHMLDMY ) reads ≥ 77.8 µM

Field Kd (entry KTSVDCNMY ) reads ≥ 77.8 µM

Field Kd (entry NAAISDYDYY ) reads ≥ 70 µM

Moving on to another sequence below.
Field Kd (entry IGAGICASY ) reads ≥ 77.8 µM
